Origin of the recorded values: patent US20210070748A1

- test-target: TEC (Homo sapiens)
- Sequence (P42680 whole entry): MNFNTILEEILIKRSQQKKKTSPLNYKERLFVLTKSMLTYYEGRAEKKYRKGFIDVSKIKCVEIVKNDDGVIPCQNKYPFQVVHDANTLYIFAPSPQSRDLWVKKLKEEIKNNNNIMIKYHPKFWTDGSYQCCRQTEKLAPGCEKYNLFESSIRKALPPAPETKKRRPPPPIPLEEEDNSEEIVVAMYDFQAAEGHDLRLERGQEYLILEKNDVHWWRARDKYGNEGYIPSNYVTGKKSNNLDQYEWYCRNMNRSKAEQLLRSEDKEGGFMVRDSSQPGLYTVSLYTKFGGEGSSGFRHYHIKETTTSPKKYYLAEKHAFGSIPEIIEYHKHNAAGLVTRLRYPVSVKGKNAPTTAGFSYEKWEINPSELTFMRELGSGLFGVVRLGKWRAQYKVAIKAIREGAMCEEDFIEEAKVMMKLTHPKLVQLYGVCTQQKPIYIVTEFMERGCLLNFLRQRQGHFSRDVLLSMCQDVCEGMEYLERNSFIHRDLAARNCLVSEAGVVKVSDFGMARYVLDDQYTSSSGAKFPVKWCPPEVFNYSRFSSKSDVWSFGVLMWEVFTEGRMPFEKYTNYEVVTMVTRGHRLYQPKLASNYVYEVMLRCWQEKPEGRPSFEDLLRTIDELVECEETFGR
- assay-details: Inhibition of a panel of kinases, in vitro HotSpot kinase assay: TEC
- Type: biochemical
- test-conditions: D-compounds panel data; 1 μM ATP
quantity: IC50

Below: 5 molecules and their reported IC50.
molecule	IC50
C[C@@H]1[C@H](NC(=O)N(C)C)CCCN1c1cnc(C(N)=O)c(Nc2ccc(N3CCN(C)CC3)cc2)c1	1000 to 10000 nM
C/C=C/c1ccc(C(=O)N[C@@H]2CCCN(c3cnc(C(N)=O)c(Nc4cc(C)ns4)c3)[C@@H]2C)c(F)c1	100 to 1000 nM
C[C@@H]1[C@H](NC(=O)c2ccc(C3CC3)cc2)CCCN1c1cnc(C(N)=O)c(Nc2cc(C3CCOCC3)ns2)n1	≤ 10 nM
CN(C)C(=O)N[C@H]1CCCN(c2cnc(C(N)=O)c(Nc3ccc4ncccc4c3)n2)[C@H]1CO (racemic)	1000 to 10000 nM
Cn1cc(Nc2nc(N3CCC[C@@H](n4ccc5cc(C6CC6)ncc5c4=O)C3)cnc2C(N)=O)cn1	≤ 10 nM

Reported IC50 of CC(=O)N1CCN(c2ccc(Nc3nc(N4CCC[C@@H](NC(=O)c5ccc(C6CC6)cc5)[C@H]4C)cnc3C(N)=O)cc2)CC1 : ≤ 10 nM

Noted for C[C@@H]1[C@H](NC(=O)c2ccc(C3CC3)cc2F)CCCN1c1cnc(C(N)=O)c(Nc2ccc3cccnc3c2)n1 : its IC50 reads 1000 to 10000 nM

###

- test-target: ITK (Homo sapiens)
- Sequence (Q08881 1-620): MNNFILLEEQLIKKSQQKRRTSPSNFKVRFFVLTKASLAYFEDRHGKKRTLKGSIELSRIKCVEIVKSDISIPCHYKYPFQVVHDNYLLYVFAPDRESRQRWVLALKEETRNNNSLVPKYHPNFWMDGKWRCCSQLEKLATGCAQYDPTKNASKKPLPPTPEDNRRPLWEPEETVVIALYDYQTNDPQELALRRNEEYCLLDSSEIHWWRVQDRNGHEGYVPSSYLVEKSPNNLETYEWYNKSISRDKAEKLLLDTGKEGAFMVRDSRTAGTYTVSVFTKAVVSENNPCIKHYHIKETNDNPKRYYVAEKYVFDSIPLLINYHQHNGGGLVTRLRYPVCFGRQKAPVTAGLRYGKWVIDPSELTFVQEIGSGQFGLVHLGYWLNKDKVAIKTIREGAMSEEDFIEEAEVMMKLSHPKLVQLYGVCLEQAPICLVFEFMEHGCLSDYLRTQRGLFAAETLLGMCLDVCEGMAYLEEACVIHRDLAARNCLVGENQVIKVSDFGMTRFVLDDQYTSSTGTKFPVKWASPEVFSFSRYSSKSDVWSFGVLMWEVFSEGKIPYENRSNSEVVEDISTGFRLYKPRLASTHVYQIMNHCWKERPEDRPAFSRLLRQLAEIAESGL
- assay-details: Inhibition of a panel of kinases, in vitro HotSpot kinase assay: ITK
- Format: biochemical
- test-conditions: D-compounds panel data; 1 μM ATP
quantity: IC50

The following compounds have reported results that may help.
compound	test-target	result
C[C@@H]1[C@H](NC(=O)N(C)C)CCCN1c1cnc(C(N)=O)c(Nc2cc(C3CCN(C4CCCC4)CC3)ns2)n1	ITK (Homo sapiens)	10 to 100 nM
Cc1cc(Nc2nc(N3CCC[C@H](NC(=O)N(C)C)[C@@H]3CO)cnc2C(N)=O)sn1	ITK (Homo sapiens)	> 10000 nM
Cc1cccc(-c2cnc(C3CCCN(c4cnc(C(N)=O)c(Nc5cnn(C)c5)n4)C3)[nH]2)c1 (stereo not shown)	ITK (Homo sapiens)	1000 to 10000 nM

C[C@@H]1[C@H](NC(=O)c2cc(C3CC3)n[nH]2)CCCN1c1cnc(C(N)=O)c(Nc2cnn(C)c2)n1 has a reported IC50 of 10 to 100 nM

###

- test-target: UniProt Q08881
- assay-details: Inhibition of a panel of kinases, in vitro HotSpot kinase assay: ITK
- Type: biochemical
- test-conditions: fold relative to Btk IC50 value
quantity: ITK* IC50 relative to Btk IC50 value (x)

Take a look at these entries with their results.
molecule	result-number
C[C@@H]1[C@H](NC(=O)c2ccc(C3CC3)cc2)CCCN1c1nnc(C(N)=O)c(Nc2cnn(C)c2)n1	234
Cn1cc(Nc2nc(N3CCC[C@@H](NC(=O)c4ccc(C5CC5)cc4)C3)nnc2C(N)=O)cn1	360
C[C@@H]1[C@H](NC(=O)c2ccc(C3COC3)cc2)CCCN1c1cnc(C(N)=O)c(Nc2cnn(C)c2)n1	157
C[C@@H]1[C@H](NC(=O)c2ccc(C3CC3)cc2)CCCN1c1cnc(C(N)=O)c(Nc2cnn(C(F)F)c2)n1	133
C[C@@H]1[C@H](NC(=O)c2ccc(C(C)(C)O)cc2)CCCN1c1cnc(C(N)=O)c(Nc2cnn(C)c2)n1	99

A: C[C@@H]1[C@H](NC(=O)c2ccc(C3CC3)cc2)CCCN1c1cnc(C(N)=O)c(Nc2cnn(C3CC3)c2)n1
B: C[C@@H]1[C@H](NC(=O)c2ccc(C(C)(C)C)cc2)CCCN1c1cnc(C(N)=O)c(Nc2cnn(C)c2)n1
ITK* IC50 relative to Btk IC50 value comparison. Which is larger, A or B ? Please reply using the label of the selected record.
B

###

Documented IC50 across a set of compounds
- test-target: ITK (Homo sapiens)
- Sequence (Q08881 1-620): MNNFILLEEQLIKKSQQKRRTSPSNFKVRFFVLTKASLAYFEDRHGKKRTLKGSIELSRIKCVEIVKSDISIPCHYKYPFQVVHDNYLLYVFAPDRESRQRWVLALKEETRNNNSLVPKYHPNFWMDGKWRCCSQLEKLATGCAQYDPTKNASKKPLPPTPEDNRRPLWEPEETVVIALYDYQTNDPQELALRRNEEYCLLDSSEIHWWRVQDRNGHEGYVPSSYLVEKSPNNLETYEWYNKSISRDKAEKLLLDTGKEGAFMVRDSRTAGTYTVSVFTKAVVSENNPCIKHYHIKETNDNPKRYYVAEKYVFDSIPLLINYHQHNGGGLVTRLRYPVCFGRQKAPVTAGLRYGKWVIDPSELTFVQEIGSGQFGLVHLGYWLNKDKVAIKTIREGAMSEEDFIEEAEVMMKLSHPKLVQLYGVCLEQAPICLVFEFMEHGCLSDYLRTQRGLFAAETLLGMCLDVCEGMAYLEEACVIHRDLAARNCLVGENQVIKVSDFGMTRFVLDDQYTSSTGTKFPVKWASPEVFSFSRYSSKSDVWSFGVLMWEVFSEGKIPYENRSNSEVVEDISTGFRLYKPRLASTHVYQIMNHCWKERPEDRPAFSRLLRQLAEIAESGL
- assay-details: Inhibition of a panel of kinases, in vitro HotSpot kinase assay: ITK
- Assay type: biochemical
- test-conditions: D-compounds panel data; 1 μM ATP

Guide cases for IC50, answers given:
compound	IC50
C[C@@H]1[C@H](NC(=O)c2ccc(C(F)(F)F)nc2)CCCN1c1cnc(C(N)=O)c(Nc2cnn(C)c2)n1 [Example D-91]	100 to 1000 nM
C[C@@H]1[C@H](NC(=O)C23CC(C2)C3)CCCN1c1cnc(C(N)=O)c(Nc2cnn(C)c2)n1 [Example D-90]	100 to 1000 nM
C[C@@H]1[C@H](NC(=O)c2ccc(C3CC3)cc2)CCCN1c1cnc(C(N)=O)c(Nc2ccc(OC(F)(F)F)cc2)n1 [Example D-42]	> 10000 nM
Cn1cc(Nc2nc(N3C4CCC(NC(=O)c5ccc(C6CC6)cc5)C3CC4)cnc2C(N)=O)cn1 (single isomer, unassigned) [Example D-199]	> 10000 nM
C[C@@H]1[C@H](NC(=O)c2ccc(C3CC3)cc2)CCCN1c1cnc(C(N)=O)c(Nc2cnn(C3CCN(CC(F)(F)F)CC3)c2)n1 [Example D-293]	1000 to 10000 nM
Cn1cc(Nc2nc(N3CC[C@@H](O)[C@H](NC(=O)c4ccc(C5CC5)cc4)C3)cnc2C(N)=O)cn1 (racemic) [Example D-26]	1000 to 10000 nM
CN1CCN(c2ccc(Nc3nc(N4CCC[C@@H](n5ccc6cc(C7CC7)ccc6c5=O)C4)cnc3C(N)=O)cc2)CC1 [Example D-165]	100 to 1000 nM
C[C@@H]1[C@H](NC(=O)c2ccc(C(O)C(F)(F)F)cc2)CCCN1c1cnc(C(N)=O)c(Nc2cnn(C)c2)n1 (single isomer, unassigned) [Example D-250]	100 to 1000 nM

Reported IC50 for C[C@@H]1[C@H](NC(=O)c2ccc(C(C)(C)C)cc2F)CCCN1c1cnc(C(N)=O)c(Nc2cnn(C)c2)n1 [Example D-223] was 1000 to 10000 nM

Per the records, this compound ( C[C@@H]1[C@H](NC(=O)c2ccc3c(c2)OCCO3)CCCN1c1cnc(C(N)=O)c(Nc2cnn(C)c2)n1 [Example D-224] ) has IC50 equal to 100 to 1000 nM

Form: compound = C[C@@H]1[C@H](NC(=O)c2ccc(C3(O)CC3)cc2)CCCN1c1cnc(C(N)=O)c(Nc2cnn(C)c2)n1 [Example D-235] ; IC50 = 100 to 1000 nM

The measured IC50 associated with C[C@@H]1[C@H](NC(=O)c2ccc3c(c2)C(C)(C)CO3)CCCN1c1cnc(C(N)=O)c(Nc2cnn(C)c2)n1 [Example D-55] reads 100 to 1000 nM

For reference, reported IC50 for Cn1cc(Nc2nc(N3CCC[C@@H]4[C@H]3CCN4C(=O)c3ccccc3)cnc2C(N)=O)cn1 (racemic) [Example D-54] stands at 1000 to 10000 nM
